Listed below are compounds with pIC50 for Cholecystokinin receptor type A (Cavia porcellus, UniProt Q63931), each taken from published literature.
// pIC50: -log10(molar conc.)

## Task Return pIC50 measured with Cholecystokinin receptor type A (Cavia porcellus, UniProt Q63931) given this compound: Cc1cccc(NC(=O)N[C@@H]2C[C@H](c3ccccc3C)C[C@H](c3ccccc3)N(CC(=O)Nc3ccccc3C)C2=O)c1
## Result 8.96

## Task Return pIC50 measured with Cholecystokinin receptor type A (Cavia porcellus, UniProt Q63931) given this compound: Cc1ccc2c(c1)N(CC(=O)NC(C)(C)C)C(=O)[C@H](NC(=O)Nc1cccc(C(=O)NS(C)(=O)=O)c1)C[C@@H]2C1CCCCC1
## Result 6.28

## Task Return pIC50 measured with Cholecystokinin receptor type A (Cavia porcellus, UniProt Q63931) given this compound: Cc1cccc(NC(=O)N[C@H](COCc2ccccc2)C(=O)N2CCC(C(=O)c3ccccc3)CC2)c1
## Result 5.62

## Task Return pIC50 measured with Cholecystokinin receptor type A (Cavia porcellus, UniProt Q63931) given this compound: Cc1ccccc1[C@@H]1C[C@H](c2ccccc2)N(CC(=O)NC(C)(C)C)C(=O)[C@H](NC(=O)Nc2cccc(C(F)(F)F)c2)C1
## Result 5.60

## Task Return pIC50 measured with Cholecystokinin receptor type A (Cavia porcellus, UniProt Q63931) given this compound: Cc1cccc(NC(=O)N[C@@H]2C[C@H](c3ccccc3C)C[C@H](c3ccccc3)N(CC(=O)NC(C)C)C2=O)c1
## Result 6.25

## Task Return pIC50 measured with Cholecystokinin receptor type A (Cavia porcellus, UniProt Q63931) given this compound: CC(Cc1c[nH]c2ccccc12)(NC(=O)OC1[C@H]2C[C@@H]3C[C@@H](C[C@H]1C3)C2)C(=O)N1CCC(C(=O)c2ccccc2)CC1 (some centres not stated)
## Result 5.77

## Task Return pIC50 measured with Cholecystokinin receptor type A (Cavia porcellus, UniProt Q63931) given this compound: Cc1cccc(NC(=O)N[C@@H]2C[C@H](c3ccccc3)C[C@H](c3ccccc3)N(CC(=O)NC(C)(C)C)C2=O)c1
## Result 6.08

* * *

Listed below are molecules with log10(IC50) for Cholecystokinin receptor type A (Cavia porcellus, UniProt Q63931), each taken from published literature.
testedOn: Cholecystokinin receptor type A (Cavia porcellus, UniProt Q63931)
Sequence (Q63931 whole entry): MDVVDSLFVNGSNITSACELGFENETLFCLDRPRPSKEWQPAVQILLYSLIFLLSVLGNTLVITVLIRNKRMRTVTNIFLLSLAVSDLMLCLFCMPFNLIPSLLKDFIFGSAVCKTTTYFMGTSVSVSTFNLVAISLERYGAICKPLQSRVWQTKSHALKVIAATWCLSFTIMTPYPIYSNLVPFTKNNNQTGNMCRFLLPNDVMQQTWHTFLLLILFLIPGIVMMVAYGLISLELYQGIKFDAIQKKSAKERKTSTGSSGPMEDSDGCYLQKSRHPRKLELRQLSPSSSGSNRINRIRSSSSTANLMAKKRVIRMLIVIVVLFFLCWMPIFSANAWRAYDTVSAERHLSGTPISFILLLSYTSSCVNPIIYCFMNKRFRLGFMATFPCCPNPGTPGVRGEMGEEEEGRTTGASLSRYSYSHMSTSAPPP
Units before log transform: µM; reported quantity: IC50; transform: log10.

## Task Return log10(IC50) measured with Cholecystokinin receptor type A (Cavia porcellus, UniProt Q63931) given this molecule: Cc1cccc(NC(=O)N[C@H](COC(=O)N2CCCC2)C(=O)N2CCC(C(=O)Nc3ccccc3)CC2)c1
## Result -0.60

## Task Return log10(IC50) measured with Cholecystokinin receptor type A (Cavia porcellus, UniProt Q63931) given this molecule: Cc1ccc([C@H]2C[C@@H](NC(=O)Nc3cccc(-c4nn[nH]n4)c3)C(=O)N(CC(=O)NC(C)(C)C)c3cc(C)ccc32)cc1
## Result -0.22

## Task Return log10(IC50) measured with Cholecystokinin receptor type A (Cavia porcellus, UniProt Q63931) given this molecule: Cc1ccc([C@H]2C[C@@H](NC(=O)Nc3cccc(Cl)c3)C(=O)N(CC(=O)NC(C)(C)C)c3cc(C)ccc32)cc1
## Result -0.38

## Task Return log10(IC50) measured with Cholecystokinin receptor type A (Cavia porcellus, UniProt Q63931) given this molecule: Cc1cccc(NC(=O)N[C@H](COCc2ccccc2)C(=O)N2CCC(Cc3ccccc3)CC2)c1
## Result 0.53

## Task Return log10(IC50) measured with Cholecystokinin receptor type A (Cavia porcellus, UniProt Q63931) given this molecule: Cc1ccccc1NC(=O)NCCCC[C@H](NNC[C@H](Cc1c[nH]c2ccccc12)NC(=O)OC(C)(C)C)C(=O)N[C@@H](CC(=O)O)C(=O)N[C@@H](Cc1ccccc1)C(N)=O
## Result -0.33

## Task Return log10(IC50) measured with Cholecystokinin receptor type A (Cavia porcellus, UniProt Q63931) given this molecule: Cc1ccccc1NC(=O)NCCCC[C@H](NC(=O)C(Cc1c[nH]c2ccccc12)NC(=O)OC(C)(C)C)C(=O)N(C)CCCC(=O)NC(Cc1ccccc1)C(N)=O (some centres undefined)
## Result -0.41

## Task Return log10(IC50) measured with Cholecystokinin receptor type A (Cavia porcellus, UniProt Q63931) given this molecule: COc1ccccc1[C@@H]1C[C@H](c2ccccc2)N(CC(=O)NC(C)(C)C)C(=O)[C@H](NC(=O)Nc2cccc(C)c2)C1
## Result -0.12

## Task Return log10(IC50) measured with Cholecystokinin receptor type A (Cavia porcellus, UniProt Q63931) given this molecule: Cc1ccc2c(c1)N(CC(=O)NC(C)(C)C)C(=O)[C@H](NC(=O)Nc1cccc(Cl)c1)C[C@@H]2c1ccccc1 (stereo in doubt; 4)
## Result -0.75

## Task Return log10(IC50) measured with Cholecystokinin receptor type A (Cavia porcellus, UniProt Q63931) given this molecule: Cc1cccc(NC(=O)N[C@@H]2C[C@H](c3ccc(F)cc3)C[C@H](c3ccccc3)N(CC(=O)NC(C)(C)C)C2=O)c1
## Result -0.15

## Task Return log10(IC50) measured with Cholecystokinin receptor type A (Cavia porcellus, UniProt Q63931) given this molecule: Cc1ccc2c(c1)N(CC(=O)NC(C)(C)C)C(=O)[C@H](NC(=O)Nc1cccc(C(=O)O)c1)C[C@@H]2C1CCCCC1 (stereo in doubt; 2)
## Result 0.15

## Task Return log10(IC50) measured with Cholecystokinin receptor type A (Cavia porcellus, UniProt Q63931) given this molecule: Cc1cccc(NC(=O)N[C@@H]2C[C@H](c3cccc(C)c3)C[C@H](c3ccccc3)N(CC(=O)NC(C)(C)C)C2=O)c1
## Result -2.89

## Task Return log10(IC50) measured with Cholecystokinin receptor type A (Cavia porcellus, UniProt Q63931) given this molecule: Cc1cccc(NC(=O)N[C@@H]2C[C@H](c3ccccc3C)C[C@H](c3ccccc3)N(CC(=O)NC3(C)CCCCC3)C2=O)c1
## Result -2.36

## Task Return log10(IC50) measured with Cholecystokinin receptor type A (Cavia porcellus, UniProt Q63931) given this molecule: CC(C)(C)NC(=O)CN1C(=O)[C@H](NC(=O)Nc2ccc(Cl)cc2)C[C@H](c2ccccc2)c2ccccc21
## Result -0.40
